Tested on: Bacillus subtilis
ASSAY TEXT: Antibacterial activity against Bacillus subtilis P10B derived after 10 passage in presence of JBIR-100 after 16 to 18 hrs by microbroth dilution assay relative to Bacillus subtilis ATCC 47096
Format: functional
# key: entry, value: fold change (FC)
Enter a number only.

MOLECULE: CN[C@H](CC(C)C)C(=O)N[C@H]1C(=O)N[C@@H](CC(N)=O)C(=O)N[C@H]2C(=O)N[C@H]3C(=O)N[C@H](C(=O)N[C@H](C(=O)O)c4cc(O)cc(O)c4-c4cc3ccc4O)[C@H](O)c3ccc(c(Cl)c3)Oc3cc2cc(c3O[C@@H]2O[C@H](CO)[C@@H](O)[C@H](O)[C@H]2O[C@H]2C[C@](C)(N)[C@H](O)[C@H](C)O2)Oc2ccc(cc2Cl)[C@H]1O [VANCOMYCIN]
RECORDED MEASUREMENT: 2

Turning now to a further molecule:
Prompt: May I ask what fold change (FC) has been recorded for O=C(N[C@H](CO)[C@H](O)c1ccc([N+](=O)[O-])cc1)C(Cl)Cl [CHLORAMPHENICOL] ?
Completion: 2
